molecular target: T1, human FcRn/b2M (human, UniProt P61769 21-119, biotinylated); assay: SPR off-rate; pH 7.4 vs pH 6.0;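 further: surface plasmon resonance with diluted periplasmic extracts flowed over ligand surfaces, 120 s association and 600–3600 s dissociation at 25 °C, running buffer containing 150 mM NaCl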
T1 construct: bought recombinant biotinylated protein (ACRO FCM-H82W4 or Immunitrack ITF01); also called hFcRn; hFcRn/hb2M
T1 sequence (chain, as listed by the source limits assumed, chain 1 of 2): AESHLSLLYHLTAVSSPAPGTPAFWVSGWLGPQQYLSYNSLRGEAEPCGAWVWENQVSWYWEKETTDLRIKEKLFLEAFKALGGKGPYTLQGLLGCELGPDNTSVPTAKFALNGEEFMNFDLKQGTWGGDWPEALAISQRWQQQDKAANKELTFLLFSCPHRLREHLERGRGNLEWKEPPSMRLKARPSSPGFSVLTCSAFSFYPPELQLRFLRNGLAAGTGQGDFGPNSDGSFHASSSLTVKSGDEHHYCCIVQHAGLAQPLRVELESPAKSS
T1 sequence (P61769 21-119 limits assumed, chain 2 of 2): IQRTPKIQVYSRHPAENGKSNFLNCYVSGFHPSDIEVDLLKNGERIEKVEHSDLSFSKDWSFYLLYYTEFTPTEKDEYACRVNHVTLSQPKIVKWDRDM
Field: kd ratio pH 7.4/6.0. Provide a value for each of the binders that follow.
Numbers only.

1) T0263018B11 G55D (VHH, name in Kabat numbering, FLAG3-His6 tagged) VHH: EVQLVESGGGVVQPGGSLRLSCAASGFTFSSYAMYWVRQAPGKGLEWVSAISSGGDSTDYADSVKGRFTISRDNSKNTLYLQMNSLRPEDTALYYCAADTLYTSLTWYSYWGQGTLVTVSS : 41
2) T0263018B11 T96Y (VHH, name in Kabat numbering, FLAG3-His6 tagged) VHH: EVQLVESGGGVVQPGGSLRLSCAASGFTFSSYAMYWVRQAPGKGLEWVSAISSGGGSTDYADSVKGRFTISRDNSKNTLYLQMNSLRPEDTALYYCAADYLYTSLTWYSYWGQGTLVTVSS : 45
3) T0263018B11 S101Q (VHH, name in Kabat numbering, FLAG3-His6 tagged) VHH: EVQLVESGGGVVQPGGSLRLSCAASGFTFSSYAMYWVRQAPGKGLEWVSAISSGGGSTDYADSVKGRFTISRDNSKNTLYLQMNSLRPEDTALYYCAADTLYTSLTWYQYWGQGTLVTVSS : 45

Turning to the following binder.
### Prompt kd ratio pH 7.4/6.0 for T0263018B11 Y32F (VHH, name in Kabat numbering, FLAG3-His6 tagged) VHH: EVQLVESGGGVVQPGGSLRLSCAASGFTFSSFAMYWVRQAPGKGLEWVSAISSGGGSTDYADSVKGRFTISRDNSKNTLYLQMNSLRPEDTALYYCAADTLYTSLTWYSYWGQGTLVTVSS ?
### Response 39
